For each of the compounds below, state its TGI.
# Test system: SF-268 CNS
# assay.overview: NCI tumour cell line growth inhibition, 48 h

compound: CCC1CN2CCc3cc(OC)c(OC)cc3C2CC1CC1c2cc(OC)c(OC)cc2CCN1C(=O)C(Cc1c[nH]c2ccccc12)NC(=O)OC(C)(C)C (centres undefined)
TGI: 15.9 µM
--
compound: O=C1/C(=C\c2ccc(Cl)cc2)CN(C(=O)c2ccccc2)C/C1=C\c1ccc(Cl)cc1
TGI: 17.5 µM
--
compound: CCOC(=O)c1c2c(n(Cc3ccccc3)c1C)-c1nc[nH]c1C(=O)C2=O
TGI: 31.2 µM
--
compound: O=C(CSc1nc2ccc([N+](=O)[O-])cc2[nH]1)Nc1ccc([N+](=O)[O-])cc1
TGI: 14.5 µM
--
compound: CC1=CC=C2C(C)(C)CC[C@@H]3OC(=O)[C@H]1[C@]23C
TGI: > 100 µM

Batch lookup, TGI per entry.
1. Cc1cc(C)c2c(=O)cc(-c3ccccc3)[nH]c2c1
2. CNC(=S)N/N=C(\C)c1cc(OC)c(OC)cc1O
3. CCNc1nc2c(=O)n(C)c(=O)n(C)c2s1
4. COc1ccc(C(=O)O[C@@H]2CCN3CC[C@H](C)[C@H]23)cc1
5. OCC(O)COc1ccc(F)cc1 (centres undefined)
6. O=C(NCCCNc1cc(-c2cn(-c3ccccc3)nc2-c2cccc(O)c2)ccn1)c1ccc(F)cc1

Result block:
["46.7 µM", "> 100 µM", "> 100 µM", "> 100 µM", "> 100 µM", "26.9 µM"]

Look up TGI for the entries below, preserving their order.
1. Cc1cc2c(cc1C)[n+](=O)c(C(=O)CC(=O)C(=O)Nc1ccccc1C)c(C)n2[O-]
2. N#CCC(=O)N/N=C(/C(=O)Nc1ccccc1)C1C(=O)N(c2ccccc2)N=C1N (centres undefined)

Result block:
["> 100 µM", "> 100 µM"]

Lab note: each compound below needs its TGI filled in.
1. Fc1cc(C2=Nn3c(nnc3-c3cc(F)c(Cl)cc3Cl)SC2)c(Cl)cc1Cl
2. S=C1NC(c2ccccc2)=NC(Cc2ccccc2)(c2ccccc2)N1c1ccccc1 (centres undefined)
3. CCOC(=O)C(=O)N=Nc1c(O)[nH]c2ccccc12
4. COc1cc(/C=C2\N=C(c3ccccc3)N(c3ccc4c(c3)Sc3cc(N5C(=O)/C(=C/c6cc(OC)c(OC)c(OC)c6)N=C5c5ccccc5)ccc3N4)C2=O)cc(OC)c1OC
5. CNc1cccc(-c2cc(=O)c3cc4c(cc3[nH]2)OCO4)c1

Result block:
1: 61.3 µM; 2: > 100 µM; 3: > 100 µM; 4: 37.5 µM; 5: > 100 µM

Your task in this section: give TGI for each listed record.
1. CC(C)(C)OC(=O)CCC1NC(=O)[C@@H]2Cc3c([nH]c4ccccc34)C(c3ccccc3)N2C1=O (some centres undefined)
2. ClCc1nnc2n1-c1ccc(Cl)cc1SC2
3. CC(=O)N[C@@H](Cc1ccc(OP(=O)(O)O)cc1)C(=O)N[C@H]1CCC(=O)N2CCC[C@@H](C(=O)NCc3cccc4ccccc34)N2C1=O

Result block:
["75.8 µM", "9.55 µM", "> 25 µM"]
